Taken from PubChem BioAssay (NCI).

- Tested on: RPMI-8226 leukemia
- assay-text: NCI-60 one-dose screen, 48 h
- recorded-conditions: 10 µM unless noted
This is part of a sample that, as a whole, favours compounds with a hit. Of some 83,000 tested, about 20% had one in any assay. Active and inactive are the calls of the source. How the source made its calls: active means growth percent below 10; inactive means the rest.
Labels: active, inactive

# compound, class-label
rows = [
    ("Cc1nn(-c2cc(=O)[nH]c3ccc(Cl)cc23)c(N)c1C#N", "inactive"),
    ("O=C1C=C(O)C(=O)C(CC2=C(O)C(=O)C=C(O)C2=O)=C1O", "inactive"),
    ("CCC(=O)c1ccc(Cl)s1", "inactive"),
    ("O=C(COc1ccc(/C=C2\\COc3ccccc3C2=O)cc1)Nc1nccs1", "active"),
    ("O=C(COc1ccc(-c2nc3cc(Cl)c(Cl)cc3[nH]2)cc1)N=Nc1c(O)[nH]c2ccccc12", "active"),
    ("COc1cc2nc(N3CCCC3)nc(NCC3CCCCC3)c2cc1OC", "active"),
    ("O=C1c2cc3c(cc2-c2c1c1ccc(F)cc1c(=O)n2CCCNCCO)OCO3", "active"),
    ("c1csc(C2=NN3C(C2)c2ccccc2OC3c2ccncc2)c1 (stereo not given)", "inactive"),
    ("CCCOc1cc2ccccc2cc1C(=O)Nc1nc(N)c2c(ccc3nccc32)[nH]1", "active"),
    ("Oc1cccc(-c2nc(N3CCOCC3)c3c4c(sc3n2)CCCC4)c1", "inactive"),
    ("Cc1cc(C)nc(SC2=C(Nc3ccc(O)cc3)C(=O)N(Cc3ccccc3)C2=O)n1", "inactive"),
    ("COc1ccc(-n2nc(C)c3c(Nc4ccc(NC(=O)Nc5cc(C(F)(F)F)ccc5F)cc4)ncnc32)cc1", "active"),
    ("CC/C=C\\C[C@H](O)C/C=C1/C(=O)C=C[C@@]1(C)C/C=C\\CCCC(=O)OC", "inactive"),
    ("COc1cc(/C=C/C(=O)c2ccc(O)c(CN3CCN(c4cc5c(cc4F)c(=O)c(C(=O)O)cn5C4CC4)CC3)c2)cc(OC)c1OC", "active"),
    ("O=C(CCN1C(=O)/C(=C/c2ccc(Cl)cc2)SC1=S)NCCCN1CCOCC1", "inactive"),
    ("CCC([N+](=O)[O-])S(=O)(=O)c1ccc(C)cc1 (stereo not given)", "inactive"),
    ("COc1ccc(/C=C\\c2cc(OC)c(OC)c(OC)c2)cc1OCC(=O)Nc1ccc2nc(C)sc2c1", "active"),
    ("CC/C=C\\C/C=C\\C[C@H]1C/C=C2/C(=O)C=C[C@@H]2C/C=C\\CCC(=O)O1", "active"),
    ("COc1ccc2nc(NC(=O)CSc3nnc4n3S(=O)(=O)c3ccccc3N4c3ccccc3)sc2c1", "inactive"),
    ("CCOC(=O)c1cc(C(=O)c2ccc(O)c(O)c2)n2ccc(-c3ccn4c(C(=O)c5ccc(O)c(O)c5)cc(C(=O)OCC)c4c3)cc12", "inactive"),
]

* * *

- Test system: U251 CNS
- assay-text: NCI-60 one-dose screen, 48 h (100 = growth as untreated, 0 = no growth, -100 = all killed)
- recorded-conditions: 10 µM unless noted
Compounds without any hit were thinned out: in the full panel of roughly 83,000, 20% have a hit. Active and inactive are the calls of the source. Rule for the calls: active = growth percent below 10; inactive = the rest.
growth values, listed per item

# entry-smiles, growth
data = [
    ("CS(=O)(=O)c1ccc(-n2nc(-c3ccc(Br)cc3)c3ccccc3c2=O)cc1", "97.1% (inactive)"),
    ("COc1cccc(-c2nc(SCC(=O)Nc3ccc(C(=O)/C=C/c4ccc(OC)c(OC)c4)cc3)[nH]c(=O)c2C#N)c1", "85.3% (inactive)"),
    ("COc1ccc(-c2cc(-c3ccc(Nc4ccnc5cc(Cl)ccc45)cc3)nc(N3CCOCC3)n2)cc1", "-37.7% (active)"),
    ("O=C(O)COc1ccc(Cl)cc1C1CCCCC1", "102% (inactive)"),
    ("Cn1c(NCCc2ccc(O)c(O)c2)nc2c1c(=O)n(Cc1ccc(Cl)c(Cl)c1)c(=O)n2C", "77.9% (inactive)"),
    ("Cc1nn(-c2ccc(F)cc2)c2ncnc(Oc3ccc(NC(=O)Nc4ccc(Cl)c(C(F)(F)F)c4)cc3)c12", "97.9% (inactive)"),
    ("NC(=NCCCOc1ccc(Cl)cc1)Nc1ccc(C(F)(F)F)cc1", "33% (inactive)"),
    ("COc1cccc(NC(=O)c2sc3nc(C)c(C(C)=O)cc3c2N)c1", "33.7% (inactive)"),
    ("Oc1ccc(N=Cc2ccccc2O)cc1", "83.3% (inactive)"),
    ("CSc1nc2c(c(=O)[nH]1)C1(C(=O)Nc3ccccc31)c1c(nc(SC)[nH]c1=O)N2", "97.9% (inactive)"),
]
